Tested on: His-NrtR (Pseudomonas aeruginosa PAK), ORF:d24b93ef
Sequence: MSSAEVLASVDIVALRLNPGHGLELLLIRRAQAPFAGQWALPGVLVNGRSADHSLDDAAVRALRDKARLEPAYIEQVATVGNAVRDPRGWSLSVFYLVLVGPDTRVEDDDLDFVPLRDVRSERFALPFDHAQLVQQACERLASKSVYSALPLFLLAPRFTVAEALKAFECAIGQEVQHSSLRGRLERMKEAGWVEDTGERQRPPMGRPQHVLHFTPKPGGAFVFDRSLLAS
Assay Remarks: EMSA
Recorded Conditions: 10 mM Tris, 1 mM DTT, pH 7.5, […]
Measure: binding

{"Sequence Code": "GCTGGGAAGGCTCGCGATGATGAGGGGACTGGCCACTGTAGCGGGCCCGGCGCAGATCATCTTGACGCACGGCAAGCTCCCGGCGGCTGGGTGTTGCCGTCGGTCCGGCGAGCGGAACTATTACAGCGTGTAAGCCAAGGCTTACAAACGGCGGTGGTTTTGGCTGCTTTCTCCCCCTCGCGGAGATGCGTAATCTTCAAACCGTCAGGACATTGCGCAGGAAGCGCCAAAGACAATACGG (double strand) [rsmY promoter fragment]", "Target Or Test System": "His-NrtR (Pseudomonas aeruginosa PAK), ORF:d24b93ef", "Assay Value": "binds"}
{"Sequence Code": "AGAAAATACCTTCCACTGCGAAATTTTGTAGTACAAGTGCTTGACGACTTATTTCACGTGATGAATTATGTACCCACATTCAGCCCCAACCCGTCAAGCGGAGGCTTCC (double strand) [nadD2 promoter fragment]", "Target Or Test System": "His-NrtR (Pseudomonas aeruginosa PAK), ORF:d24b93ef", "Assay Value": "binds"}
{"Sequence Code": "CAGGAGTGATATTAGCGATTCCCAGTGCTCCCGCAACCTGCCAGAAAACCCAGCGAAGCTTCTTCGGCAGCCATTTTAGAAAAATATATTCCTTTAATTTCAATAAGTTACTTAAATTCACCGAGCGTTTTTGGCAAACCTCCCGGGCATTTATCTACTTAGGCTCACACGCCGTGTAAGTTAATGCTTACAAGAGCAGACACAAAAAACCCGGCGAACGCCGGGTCTTCAGTGGGTCTAAGGTTTTCCG (double strand) [rsmZ promoter fragment]", "Target Or Test System": "His-NrtR (Pseudomonas aeruginosa PAK), ORF:d24b93ef", "Assay Value": "binds"}
